// data source = paper PMC12278462

Test system: MCF-7
assayNotes: MTT antiproliferative assay, MCF-7
Assay type: cell-based, human
conditionsUsed: Homo sapiens, MCF7, 10 µM, 72 h
quantityKind: inhibition at 10 µM (%)
Give bare numbers, in %.

Observe how each entry below is paired with its result.
compound | scaleUnit | inhibition at 10 µM
CCCCOC1(c2cc(=O)c3c(Oc4ccc(Br)cc4)cc(O)cc3o2)C=CC(=O)C=C1 [17b] | % | 97.4
CCCCOC1(c2cc(=O)c3c(Oc4ccc(C(C)(C)C)cc4)cc(O)cc3o2)C=CC(=O)C=C1 [17c] | % | 98.5
C[C@@]12CC[C@@H]3c4c(cc(O)cc4-c4ccc(Br)cc4)CC[C@H]3[C@@H]1CCC2=O [14b] | % | 35.1
CN(C)C(=O)Oc1cc2c(c(-c3ccc(C(C)(C)C)cc3)c1)[C@H]1CC[C@@]3(C)C(=O)CC[C@H]3[C@@H]1CC2 [13c] | % | 58.4
CC(C)(C)c1ccc(-c2cc(O)cc3c2[C@H]2CC[C@@]4(C)C(=O)CC[C@H]4[C@@H]2CC3)cc1 [14c] | % | 35.4

Each compound below has a reported value. Please supply its inhibition at 10 µM.
1. C[C@@]12CC[C@@H]3c4c(cc(O)cc4-c4ccccc4)CC[C@H]3[C@@H]1CCC2=O [14a]
2. CCCCOC1(c2cc(=O)c3c(O)cc(O)cc3o2)C=CC(=O)C=C1 [compound 10, 1′-O-butyl protoapigenone, reference compound]
3. CCCCOC1(c2cc(=O)c3c(Oc4ccccc4)cc(O)cc3o2)C=CC(=O)C=C1 [17a]
4. CN(C)C(=O)Oc1cc2c(c(-c3ccccc3)c1)[C@H]1CC[C@@]3(C)C(=O)CC[C@H]3[C@@H]1CC2 [13a]

[A]
13.1
87.7
93.1
22.5

[Q] Please list inhibition at 10 µM recorded for the compound CN(C)C(=O)Oc1cc2c(c(-c3ccc(Br)cc3)c1)[C@H]1CC[C@@]3(C)C(=O)CC[C@H]3[C@@H]1CC2 [13b]
[A] 37.5

###

Test system: MCF-7
assayNotes: MTT antiproliferative assay, MCF-7
Type: cell-based, human
conditionsUsed: Homo sapiens, MCF7, 72 h, read-out: calculated IC50 MCF-7
quantityKind: pIC50
Give bare numbers, as −log10 of the molar value.

Observe how each entry below is paired with its result.
compound | systemUnderTest | pIC50
CCCCOC1(c2cc(=O)c3c(O)cc(O)cc3o2)C=CC(=O)C=C1 [compound 10, 1′-O-butyl protoapigenone, reference compound] | MCF-7 | 5.52
CC(C)(C)c1ccc(-c2cc(O)cc3c2[C@H]2CC[C@@]4(C)C(=O)CC[C@H]4[C@@H]2CC3)cc1 [14c] | MCF-7 | 4.98
CN(C)C(=O)Oc1cc2c(c(-c3ccc(C(C)(C)C)cc3)c1)[C@H]1CC[C@@]3(C)C(=O)CC[C@H]3[C@@H]1CC2 [13c] | MCF-7 | 5.24
CCCCOC1(c2cc(=O)c3c(Oc4ccccc4)cc(O)cc3o2)C=CC(=O)C=C1 [17a] | MCF-7 | 6.01
CCCCOC1(c2cc(=O)c3c(Oc4ccc(Br)cc4)cc(O)cc3o2)C=CC(=O)C=C1 [17b] | MCF-7 | 5.94

Each compound below has a reported value. Please supply its pIC50.
1. C[C@@]12CC[C@@H]3c4c(cc(O)cc4-c4ccc(Br)cc4)CC[C@H]3[C@@H]1CCC2=O [14b]
2. CCCCOC1(c2cc(=O)c3c(Oc4ccc(C(C)(C)C)cc4)cc(O)cc3o2)C=CC(=O)C=C1 [17c]

[A]
4.87
6.22
